All values here come from ChEMBL document CHEMBL1201862.

- Tested on: DLD-1
- Method: NCI tumour cell line growth inhibition, 48 h
Activity calls are given as the source filed them. Cut-off read from the data, not from the text of the source: active = GI50 up to about 1.1 µM and inactive = higher.
Exercise: for every item that follows, state its recorded GI50.

Worked cases, GI50 given:
Molecule	Assayed Target	Recorded Endpoint	Assay Value
Cc1cc2c(=O)cc(-c3ccc(C(=O)O)cc3)oc2c(C(=O)O)c1C	DLD-1	GI50	> 100 µM (inactive)
CC(C)CCC[C@@H](C)C1CCC2[C@@H]3CC=C4C[C@@H](OC(=O)CCC(=O)NCC[N+](C)(C)CCCS(=O)(=O)[O-])CC[C@]4(C)C3CC[C@@]21C (some centres undefined)	DLD-1	GI50	21.7 µM (inactive)
Nc1nc(CCC(=O)Nc2cccc(C(F)(F)F)c2)cc(-c2ccc3ccccc3c2)n1	DLD-1	GI50	> 100 µM (inactive)

Moving on to the next molecule.
Give its GI50 value. Item: Cn1cnc([N+](=O)[O-])c1Sc1nc(N)nc2c1ncn2C1OC(CO)C(O)C1O (centres undefined)
7.67 µM (inactive)
